The values you see were collected from patent EP2796135A1.

Assay Method Text: preliminary oral study with ascending dose levels in minipigs (Example 13)
Assay type: in vivo, Göttingen minipig
Experimental Parameters: in vivo, minipig, read-out: maximum tolerated dose
Structures can show the parent of a compound that is named as a salt.
Assay Metric: MTD

Qu. Given O=C(O)C(F)(F)F [Calcium salt of trifluoroacetic acid, Calcium trifluoroacetate] , state its recorded MTD.
Ans. ≥ 1000 mg/kg
